tested on: A549/ATCC NSCLC; assay: NCI-60 one-dose screen, 48 h; settings: 10 µM
The panel holds about 83,000 compounds, 20% with a hit somewhere; the sample as a whole holds those more often. The source made the active and inactive calls. Rule for the calls: active = growth percent below 10; inactive = the rest.
The reply should name one outcome from active, inactive

Input: Name the outcome recorded for "Cc1cc(C(C)(C)C)cc(C)c1Br" in the assay.
Output: inactive

Input: Name the outcome recorded for "CC(=O)Cc1cc(-c2cc(CC(C)=O)[nH]n2)n[nH]1" in the assay.
Output: inactive

Input: Name the outcome recorded for "c1csc(-c2cc(-c3cc(-c4cccs4)[nH]n3)n[nH]2)c1" in the assay.
Output: inactive

Input: Name the outcome recorded for "Cc1ccc(C(=O)c2ccccc2)c(C)c1" in the assay.
Output: inactive

Input: Name the outcome recorded for COc1cc2c3cc1Oc1c(OC)c(OC)cc4c1C(Cc1ccc(O)c(c1)Oc1ccc(cc1)CC3N(C)CC2)N(C)CC4 (configuration not stated) in the assay.
Output: active

###

system: OVCAR-4 ovarian; assay: NCI-60 one-dose screen, 48 h (100 = growth as untreated, 0 = no growth, -100 = all killed); details: 10 µM
About 83,000 compounds went through this panel and 20% of them were active in at least one assay; those are over-represented in the sample as a whole. The source made the active and inactive calls. The calls were made as follows: active = growth percent below 10; inactive = the rest.
measurement-name: growth

"C=CCCCCCCCCCOC(C)=O" has a reported growth of 103% (inactive)

"O=C1Cc2ccccc2C(=O)O1" has a reported growth of 112% (inactive)

COc1cc2c3cc1Oc1c(OC)c(OC)cc4c1C(Cc1ccc(O)c(c1)Oc1ccc(cc1)CC3N(C)CC2)N(C)CC4 (centres undefined) has a reported growth of 13.5% (inactive)

"COS(=O)(=O)c1ccc(Br)cc1" has a reported growth of 107% (inactive)

"COc1ccc(/C(C#N)=C2C=C/C(=N/O)c3ccccc3\2)cc1" has a reported growth of 35.8% (inactive)

Please look at the following compound next.
"Brc1cnc2ccccc2c1" has a reported growth of 118% (inactive)

###

test system: KM12 colon; assay: NCI-60 one-dose screen, 48 h (100 = growth as untreated, 0 = no growth, -100 = all killed); details: 10 µM
About 83,000 compounds went through this panel and 20% of them were active in at least one assay; those are over-represented in the sample as a whole.
Reported growth values are given for each entry in this list.
Response body: numeric value in %, unit text excluded.

"CCNCCCCNCCCCNCCCCNCCCCNCC" has a reported growth of 62.1

"C[N+](C)(C)C(=O)c1ccccc1" has a reported growth of 112

COc1ccccc1C1OC2=Nc3cc(C)c(C)cc3NC2C1=O (stereo not drawn) has a reported growth of 93

###

Tested on: OVCAR-5 ovarian
Assay: NCI-60 one-dose screen, 48 h (100 = growth as untreated, 0 = no growth, -100 = all killed)
Conditions: 10 µM
Protocol: Growth inhibition of the OVCAR-5 human tumor cell line is measured as a screen for anti-cancer activity. Cells are grown in 96 well plates and exposed to the test compound for 48 hours. Compounds are tested at a single concentration, which is 10^-5 M for most compounds. The reported endpoint is percent growth (GI% or GIPRCNT), where numbers from 0 - 100% represent growth inhibition, and numbers from -100% - 0 represent cell death. For example, a value of 40 represents 60% growth inhibition. […]
The panel holds about 83,000 compounds, 20% with a hit somewhere; the sample as a whole holds those more often.
Reported growth values are given for each entry in this list.
Response body: numeric value in %, unit text excluded.

Some compounds with known growth results, for comparison:
"CN(C)c1ccc(C(c2ccc(O)cc2)c2ccc(N(C)C)cc2)cc1" has a reported growth of 98.6

"O=C1C=CC(=O)N1c1ccc(I)cc1Cl" has a reported growth of 102

"FC(F)(F)c1ccc2c(c1)N(CCCN1CCN(C3CC3)CC1)c1ccccc1S2" has a reported growth of 89.7

"CC(C)=NNC(N)=S" has a reported growth of 89

"CCOC(=O)CSc1c([N+](=O)[O-])ncn1C" has a reported growth of 91.8

CCCOC(=O)C(O)c1ccccc1 (stereo not drawn) has a reported growth of 94.9

"Cc1ccc(C)n1-c1ccsc1C(=O)NNC(=O)C(Cl)Cl" has a reported growth of 112

"CC1=CC(=O)c2ccccc2C1=O" has a reported growth of 105

"O=c1cc(-c2ccccc2)nc2cc(-c3ccco3)[nH]n12" has a reported growth of 116

O=C1C=CC2=C3c4cc(O)c(O)cc4CC3(O)COC2=C1O (stereo not drawn) has a reported growth of 104

New cases:
"COC(=O)/C=C1\Sc2cc(F)ccc2NC1=O" has a reported growth of 83.2

"Cc1cc(=O)[nH]c(NN=C2CCCC2)n1" has a reported growth of 99.4

"CCCCOC(OCCCC)c1ccccc1" has a reported growth of 107
